# Target Entity: γ-secretase (Homo sapiens)
# Construct: endogenous in cells; host or cells: membranes of 293 cells (T-REx, clone pTRE.15) with tetracycline-induced SPC99-Lon
# Measurement Protocol: Gamma secretase activity, membrane assay with Aβ 40 / Aβ 42 ECL immunoassay (Zhang et al.)
# Format: biochemical
# Test Settings: membranes of 293 cells expressing SPC99-Lon (clone pTRE.15), 37° C., 1 h; read-out: IC50 (μM), γ-secretase inhibitory activity
Endpoint Name: IC50 (µM)

>>> measurement("O=C(CC1(C2CCCC(c3cc(F)cc(F)c3)N2S(=O)(=O)c2ccc(Cl)cc2)CC1)N1CC[C@H](O)C1 (some centres unmarked)")
0.0132

a: O=C(CC1(C2CCCC(c3cc(F)cc(F)c3)N2S(=O)(=O)c2ccc(Cl)cc2)CC1)N1CCCCC1 (centres unmarked)
b: O=C(CC1([C@@H]2CCC[C@H](c3cc(F)cc(F)c3)N2S(=O)(=O)c2ccc(Cl)cc2)CC1)N1CCN(CCO)CC1
Query: Short answer wanted: higher IC50, a or b ? Refer to your chosen entry by its label in the reply.
Reply: a

1: O=S(=O)(CC1([C@H]2CCC[C@@H](c3cc(F)cc(F)c3)N2S(=O)(=O)c2ccc(Cl)cc2)CC1)N1CCN(CCO)CC1
2: O=C(CC1([C@H]2CCC[C@@H](c3cc(F)cc(F)c3)N2S(=O)(=O)c2ccc(Cl)cc2)CC1)N1CCC[C@H]1CO
Query: When the recorded IC50 values are compared, which is smaller: that of 1 or that of 2 ? # reply format: chosen label
Reply: 1
(1: 0.0124 µM, 2: 0.0196 µM)

----------
# Target Entity: γ-secretase (Homo sapiens, UniProt P49768)
# Construct: endogenous in cells; host or cells: membranes of 293 cells (T-REx, clone pTRE.15) with tetracycline-induced SPC99-Lon
# Measurement Protocol: Gamma secretase activity, membrane assay with Aβ 40 / Aβ 42 ECL immunoassay (Zhang et al.)
# Format: biochemical
# Test Settings: same membrane assay; ranges given as 'about'; read-out: IC50 values within the range
List of IC50 values.

The cases that follow already have their IC50 on record.
>>> measurement("O=C(N1CCCC1)C1([C@H]2CCC[C@@H](c3cc(F)cc(F)c3)N2S(=O)(=O)c2ccc(Cl)cc2)CC1")
"1 to 200 nM"
>>> measurement("O=C(CC1([C@H]2CCC[C@@H](c3cc(F)cc(F)c3)N2S(=O)(=O)c2ccc(Cl)cc2)CC1)N1CCCC1")
"1 to 200 nM"
>>> measurement("O=C(N1CCC(N2CCCCC2)CC1)C1([C@H]2CCC[C@@H](c3cc(F)cc(F)c3)N2S(=O)(=O)c2ccc(Cl)cc2)CC1")
"1 to 200 nM"

Let us examine a further case.
Query: Output IC50 of `O=C(N1C[C@@H](N2CCCCC2)C[C@@H]1CO)C1([C@H]2CCC[C@@H](c3cc(F)cc(F)c3)N2S(=O)(=O)c2ccc(Cl)cc2)CC1`
Reply: 1 to 200 nM

----------
# Target Entity: γ-secretase (Homo sapiens, UniProt P49768)
# Construct: endogenous in cells; host or cells: membranes of 293 cells (T-REx, clone pTRE.15) with tetracycline-induced SPC99-Lon
# Measurement Protocol: Gamma secretase activity, membrane assay with Aβ 40 / Aβ 42 ECL immunoassay (Zhang et al.)
# Assay type: biochemical
# Test Settings: membranes of 293 cells expressing SPC99-Lon (clone pTRE.15), 37° C., 1 h; read-out: IC50 (μM), γ-secretase inhibitory activity
Endpoint Name: IC50 (µM)

Answered examples (3):
>>> measurement("O=S(=O)(CC1([C@H]2CCC[C@@H](c3cc(F)cc(F)c3)N2S(=O)(=O)c2ccc(Cl)cc2)CC1)N1CCC[C@H]1CO")
0.0164
>>> measurement("O=C(CC1(C2CCCC(c3cc(F)cc(F)c3)N2S(=O)(=O)c2ccc(Cl)cc2)CC1)N1CCC(N2CCCCC2)CC1 (stereo not drawn)")
0.0014
>>> measurement("O=C(C(O)C1([C@H]2CCC[C@@H](c3cc(F)cc(F)c3)N2S(=O)(=O)c2ccc(Cl)cc2)CC1)N1CCC(N2CCCCC2)CC1 (stereo partly drawn)")
0.0049

1: CCC1(O)CC2CCC(C1)N2C(=O)C(O)C1([C@H]2CCC[C@@H](c3cc(F)cc(F)c3)N2S(=O)(=O)c2ccc(Cl)cc2)CC1 (stereo partly drawn)
2: O=S(=O)(CC1([C@H]2CCC[C@@H](c3cc(F)cc(F)c3)N2S(=O)(=O)c2ccc(Cl)cc2)CC1)N1CCC(N2CCOCC2)CC1
Query: Which numeric IC50 is bigger, that of 1 or that of 2 ? State your choice using its label.
Reply: 2
(2: 0.0145 µM, 1: 0.0068 µM)

----------
# Target Entity: γ-secretase (Homo sapiens, UniProt P49768)
# Construct: endogenous in cells; host or cells: membranes of 293 cells (T-REx, clone pTRE.15) with tetracycline-induced SPC99-Lon
# Measurement Protocol: Gamma secretase activity, membrane assay with Aβ 40 / Aβ 42 ECL immunoassay (Zhang et al.)
# Format: biochemical
# Test Settings: membranes of 293 cells expressing SPC99-Lon (clone pTRE.15), 37° C., 1 h; read-out: IC50 (μM), γ-secretase inhibitory activity
Endpoint Name: IC50 (µM)

>>> measurement("CN1CCN(S(=O)(=O)CC2([C@H]3CCC[C@@H](c4cc(F)cc(F)c4)N3S(=O)(=O)c3ccc(Cl)cc3)CC2)CC1")
0.0117
>>> measurement("O=S(=O)(CC1([C@H]2CCC[C@@H](c3cc(F)cc(F)c3)N2S(=O)(=O)c2ccc(Cl)cc2)CC1)N1CC[C@H](O)C1")
0.0151
>>> measurement("O=S(=O)(CC1([C@@H]2CCC[C@H](c3cc(F)cc(F)c3)N2S(=O)(=O)c2ccc(Cl)cc2)CC1)N1CCC(N2CCCCC2)CC1")
0.0119
